biological target: cynomolgus monkey C17,20 lyase (Macaca fascicularis, UniProt Q2XVA1); construct: microsomal preparations of the enzyme from testicular tissue; from tissue; host or cells: cynomolgus monkey testes, microsomes; test: In vitro C17,20 lyase assay, testicular microsomes; type: biochemical; settings: 10 µM, preincubation 0 min; mean of duplicates
Sequence (Q2XVA1 whole entry): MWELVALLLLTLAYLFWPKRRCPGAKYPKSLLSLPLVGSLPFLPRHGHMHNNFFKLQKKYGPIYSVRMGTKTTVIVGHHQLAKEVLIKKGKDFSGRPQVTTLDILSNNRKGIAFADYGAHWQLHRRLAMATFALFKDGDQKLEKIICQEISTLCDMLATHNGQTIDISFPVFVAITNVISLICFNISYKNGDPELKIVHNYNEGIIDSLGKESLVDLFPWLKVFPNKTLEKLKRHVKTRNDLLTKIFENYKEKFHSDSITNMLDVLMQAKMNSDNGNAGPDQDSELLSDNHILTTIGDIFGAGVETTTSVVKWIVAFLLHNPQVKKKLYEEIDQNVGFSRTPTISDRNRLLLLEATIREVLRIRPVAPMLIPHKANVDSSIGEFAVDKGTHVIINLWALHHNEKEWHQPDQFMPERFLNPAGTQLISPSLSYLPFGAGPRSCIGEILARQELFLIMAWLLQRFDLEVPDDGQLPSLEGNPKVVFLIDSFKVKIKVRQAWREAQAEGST
Reported metric: inhibition at 10 µM (%)

INSERT INTO results (compound, measurement_units, reading) VALUES
  ('C[C@]12CC[C@H]3[C@@H](CC=C4NC(=O)CC[C@@]43C)[C@@H]1CC[C@@H]2OC1CC1 (stereo in doubt) [MDL 103,496]', '%', 39.2),
  ('CC12C=CC(=O)N[C@@H]1CCC1C2CCC2(C)C1CC[C@@H]2OC1CC1 (some centres unmarked) [MDL 103,129]', '%', 77.3),
  ('C[C@]12CC[C@H]3[C@@H](CC=C4NC(=O)CC[C@@]43C)[C@@H]1CC[C@@H]2NC1CC1 [MDL 105,831]', '%', 69.6),
  ('CC12CCC3C(CC[C@H]4NC(=O)CCC34C)C1CC[C@@H]2OC1CC1 (some centres unmarked) [MDL 103,432]', '%', 68.3),
  ('CN1C(=O)CC[C@@]2(C)C1=CC[C@H]1[C@@H]3CC[C@H](OC4CC4)[C@@]3(C)CC[C@@H]12 (stereo in doubt) [MDL 104,313]', '%', 63.6);
